target: Alpha-1B adrenergic receptor (Rattus norvegicus, UniProt P15823); experiment: DRUGMATRIX: Alpha-1B adrenergic receptor radioligand binding (ligand: prazosin); type: cell membranes, Wistar, Liver, Membrane; settings: Not Active = under 50% inhibition at 10 µM
Sequence (P15823 whole entry): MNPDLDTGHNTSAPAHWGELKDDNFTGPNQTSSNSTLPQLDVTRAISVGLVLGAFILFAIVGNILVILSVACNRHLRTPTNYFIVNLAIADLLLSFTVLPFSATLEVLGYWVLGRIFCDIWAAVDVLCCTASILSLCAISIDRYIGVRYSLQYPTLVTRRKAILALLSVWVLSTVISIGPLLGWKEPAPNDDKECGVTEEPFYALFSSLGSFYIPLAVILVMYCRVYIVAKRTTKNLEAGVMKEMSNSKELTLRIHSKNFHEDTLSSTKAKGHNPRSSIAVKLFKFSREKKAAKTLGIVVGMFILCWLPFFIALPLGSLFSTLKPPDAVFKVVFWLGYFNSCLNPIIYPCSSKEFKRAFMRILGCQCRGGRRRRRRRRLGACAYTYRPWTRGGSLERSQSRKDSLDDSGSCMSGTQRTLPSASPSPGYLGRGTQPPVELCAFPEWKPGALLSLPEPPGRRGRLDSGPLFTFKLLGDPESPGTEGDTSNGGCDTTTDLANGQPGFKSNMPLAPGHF
EXPERIMENTAL READOUT: IC50

# count of solved cases: 4
O=C(O)COC(=O)Cc1ccccc1Nc1c(Cl)cccc1Cl [ACECLOFENAC]
Not Active
C[N+](C)(C)CCOP(=O)([O-])OC[C@H](O)CO
Not Active
O=C(Nc1ccc(Cl)c(Cl)c1)c1cc(Cl)cc(Cl)c1O [3,3',4',5-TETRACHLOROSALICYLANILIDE]
Not Active
NCC(CC(=O)O)c1ccc(Cl)cc1 (centres undefined) [BACLOFEN]
Not Active

GET /value?item= CCN(CCO)CCCC(C)Nc1ccnc2cc(Cl)ccc12 (centres undefined) [HYDROXYCHLOROQUINE] &field=IC50 returns Not Active

The compound CCN(CC)C(=S)SSC(=S)N(CC)CC showed IC50 equal to Not Active

Per the records, this compound ( C[N+]1(C)[C@@H]2C[C@@H](OC(=O)[C@H](CO)c3ccccc3)C[C@H]1[C@@H]1O[C@@H]12.[Br-] [METHSCOPOLAMINE BROMIDE] ) has IC50 equal to Not Active

Lookup result for Cc1cnc(NC(=O)C2=C(O)c3ccccc3S(=O)(=O)N2C)s1 [MELOXICAM] ; measured IC50: Not Active

IC50 in this record for Cc1cccc(C)c1NC(=O)C(C)N (centres undefined) [TOCAINIDE] : Not Active
